- System: MDA-MB-231 breast
- experiment_summary: NCI-60 one-dose screen, 48 h (100 = growth as untreated, 0 = no growth, -100 = all killed)
- experimental_conditions: 10 µM unless noted
This is part of a sample that, as a whole, favours compounds with a hit. Of some 83,000 tested, about 20% had one in any assay.
recorded_endpoint: growth (%)
Give bare numbers, in %.

As a guide, the following entries are already answered.
[[record]]
molecule = "CCn1c(O)c(/C=N/NC(=O)C(C)c2ccc(CC(C)C)cc2)sc1=S (stereo not given)"
uom = "%"
result_value = 35.4

[[record]]
molecule = "Cc1ccc(C2=NN3C(C2)c2cc(Br)ccc2OC32CCN(Cc3ccccc3)CC2)o1 (stereo not given)"
uom = "%"
result_value = 92.3

[[record]]
molecule = "COc1cccc(-c2nc3sccn3c2-c2ccnc(NCCCNS(=O)(=O)c3cccc(F)c3)c2)c1"
uom = "%"
result_value = 65.4

[[record]]
molecule = "CN1CCN(CCCOc2cccc3nc(Nc4cc(Cl)cc(Cl)c4)ccc23)CC1"
uom = "%"
result_value = -44.6

[[record]]
molecule = "O=C(N=Nc1c(O)[nH]c2ccccc12)c1cc(-c2ccccc2)on1"
uom = "%"
result_value = 93.1

[[record]]
molecule = "O=C1/C(=C/c2ccc(Cl)cc2)SC(=S)N1CCc1ccc(O)cc1"
uom = "%"
result_value = 84


Working through the 6 molecules below one at a time, give growth for each.
1. CC1=C(O)C(=O)C(C(C#N)(C#N)C(C#N)C#N)C1 (stereo not given)
2. C=CC(=O)Nc1cccc(-c2nc(SC)nc(Nc3ccccc3OC)c2C#N)c1
3. CCNc1ncnc2c1cnn2C1CCCO1 (stereo not given)
4. C#CC(F)(F)[C@]1(O)CC[C@H]2[C@@H]3CCC4=CC(=O)CCC4=C3[C@@H](c3ccc(C4CC4)cc3)C[C@@]21C
5. CCn1c(Cc2ccccc2Nc2c(Cl)cccc2Cl)nnc1SCC(=O)NN1C(=O)/C(=C/c2cc(OC)c(O)c(OC)c2)SC1=S
6. Cn1cc(-c2nonc2-c2c[nH]c3ccc(F)cc23)c2cccnc21

124
33.2
110
-10.3
60.9
78.4

Your task in this section: give growth for each listed record.
1. Cn1cc(C(=O)c2nc(-c3c[nH]c4ccc(Br)cc34)no2)c2cc(F)ccc21
2. COc1ccc(Nc2cc(C)nc(N3CCN(c4ccnc5cc(Cl)ccc45)CC3)n2)cc1
3. COc1cc(/C=C/c2cc(/C=C/c3ccc(O)c(OC)c3)n(-c3c(C)cccc3C)c(=O)n2)ccc1O
4. Cc1ccc(O)c(N2C(=NCc3ccco3)NS(=O)(=O)c3cnccc32)c1
5. O=C1OCC2=C1C(c1ccncc1)c1cc3c(cc1N2CCO)OCO3 (stereo not given)
6. O=C1/C(=C(/c2ccccc2)N2CCOCC2)Cc2ccccc21

1: 89; 2: 17.7; 3: 23.1; 4: 111; 5: 101; 6: 8.95

Hey, quick one: what's growth for each of these?
1. Cc1[nH]c(-c2ccc3cc[nH]c3c2)c2c1C(=O)CCCC2
2. Cc1cc(N2CCOCC2)nc(NCc2cc(Nc3ccnc4cc(Cl)ccc34)ccc2F)n1

43.2
-78.3

The reported numbers originate from PubChem BioAssay (NCI).
